# System: K562 (human chronic myelogenous leukemia) cells
# Assay Text: Cell Titer Glo 2.0 cell viability assay
# Type: cell-based
# Conditions: Homo sapiens, K562, 72 h, K562 cells, 72 hours, Cell Titer Glo 2.0; read-out: K562 GI50
Attribute Measured: GI50

Input: Give GI50 for CNc1cc(-c2cc(F)c3nc(C)cn3c2)cc2ncn(C3CCNCC3)c(=O)c12
Output: 1000 to 10000 nM

Input: Give GI50 for Cc1cn2nc(-c3cc(F)c4c(=O)n(C5CCNC6(CC6)C5)ccc4c3)cc(C)c2n1 (stereo not shown)
Output: 100 to 1000 nM

Input: Give GI50 for Cn1cc2cc(-c3ccc4c(=O)n([C@H]5CCNC5)ccc4n3)c(O)c(F)c2n1
Output: 100 to 1000 nM

Input: Give GI50 for Cc1c(O)c(-c2ncc3c(=O)n([C@H]4CCNC(C)(C)C4)ccc3n2)cc2cn(C)nc12
Output: < 100 nM

Input: Give GI50 for Cc1cn2nc(-c3cc(F)c4c(=O)n([C@@H]5CCNC6(CC6)C5)ccc4c3)cc(C)c2n1 (single isomer, unassigned)
Output: < 100 nM

Input: Give GI50 for Cc1cn2cc(-c3cc(N)c4c(=O)n(C5CCNCC5)cnc4c3)cc(C#N)c2n1
Output: > 10000 nM

Input: Give GI50 for Cc1cn2nc(-c3ccc4c(=O)n(C5CCNC6(CCC6)C5)ncc4n3)cc(C)c2n1 (stereo not shown)
Output: 1000 to 10000 nM

Input: Give GI50 for Cc1cn2nc(-c3ccc4c(=O)n(C5CCNC5)ncc4c3)cc(C)c2n1 (stereo not shown)
Output: 1000 to 10000 nM

Input: Give GI50 for Cn1ccc2c(cnn2-c2ccc3c(=O)n(C4CCNCC4)ccc3c2)c1=O
Output: 1000 to 10000 nM

Input: Give GI50 for Cc1c(O)c(-c2ncc3c(=O)n(C4CCNC4)ccc3n2)cc2cn(C)nc12 (stereo in doubt) [Compound 1439]
Output: 100 to 1000 nM

Input: Give GI50 for Cc1nc2c(C)cc(-c3cc(F)c4c(=O)n(C5CCNC6(CC6)C5)ccc4c3)cc2o1 (stereo not shown)
Output: 100 to 1000 nM

Input: Give GI50 for Cc1cn2nc(-c3ccc4c(=O)n(C5CCNCC5)ccc4c3)cc(Cc3nnn[nH]3)c2n1
Output: > 10000 nM

Input: Give GI50 for Cc1cn2nc(-c3cc(N(C)C)c4c(=O)n(C5CCNC6(CC6)C5)cnc4c3)cc(C)c2n1 (stereo not shown)
Output: > 10000 nM

Input: Give GI50 for Cc1cn2cc(-c3cc(F)c4c(=O)n([C@H]5CCNC5)ccc4c3)cc(F)c2n1 (single isomer, unassigned)
Output: 100 to 1000 nM

Input: Give GI50 for Cc1cn2cc(-c3cc4ccn(C5CCNCC5)c(=O)c4cn3)nc(C)c2n1
Output: 100 to 1000 nM

Input: Give GI50 for Cn1cc2cc(-c3ccc4c(=O)n([C@@H]5CCNC6(CC6)C5)ccc4n3)c(O)cc2n1
Output: 100 to 1000 nM

Input: Give GI50 for Cn1cc2cc(-c3cc(F)c4c(=O)n(C5CCNCC5)cnc4c3)cc(F)c2n1
Output: 1000 to 10000 nM

Input: Give GI50 for Cc1c(O)c(-c2ccc3c(=O)n(C4CCNCC4)cnc3n2)cc2cn(C)nc12
Output: 100 to 1000 nM

Input: Give GI50 for CN1CCC(n2ncc3nc(-c4cc5cn(C)nc5cc4O)ccc3c2=O)CC1
Output: 1000 to 10000 nM

Input: Give GI50 for Cc1cn2nc(-c3ccc4c(=O)n(C5CCN(C)CC5)ncc4c3)cc(C)c2n1
Output: 100 to 1000 nM

Input: Give GI50 for Cc1cn(C2CCNCC2)c(=O)c2ccc(-c3cc4cn(C)nc4c(F)c3O)nc12
Output: < 100 nM

Input: Give GI50 for Cc1cn2cc(-n3cnc4cc(N5CCN(C)CC5)ccc4c3=O)cc(F)c2n1
Output: > 10000 nM

Input: Give GI50 for Cc1c(O)c(-c2ncc3c(=O)n([C@@H]4C[C@H]5CC[C@@H](C4)N5)ccc3n2)cc2cn(C)nc12
Output: 100 to 1000 nM

Input: Give GI50 for Cc1cn2cc(-c3ncc4c(=O)n([C@H]5CCNC6(CC6)C5)ccc4n3)cc(F)c2n1
Output: 100 to 1000 nM

Input: Give GI50 for Cc1cc(-c2ccc3c(=O)n(C4CCNC5(COC5)C4)cnc3c2)cc2cn(C)nc12 (stereo not shown)
Output: 1000 to 10000 nM

Input: Give GI50 for Cc1cn2cc(-c3cc(F)c4c(=O)n(C5CCNCC5)cc(C)c4c3)cc(F)c2n1
Output: < 100 nM

Input: Give GI50 for Cc1cn2nc(-c3ccc4c(=O)n([C@@H]5CCNC6(CCC6)C5)ncc4n3)cc(C)c2n1
Output: 100 to 1000 nM

Input: Give GI50 for Cc1cn2cc(-c3ccc4c(=O)n(C5CCNC5)ccc4n3)cc(F)c2n1 (stereo not shown)
Output: 1000 to 10000 nM

Input: Give GI50 for Cc1cn2cc(-c3ccc4c(=O)n(C56CCC(N)(CC5)C6)ccc4n3)cc(F)c2n1
Output: 100 to 1000 nM

Input: Give GI50 for Cc1c(O)c(-c2ncc3c(=O)n([C@H]4C[C@@H](N)C4)ccc3n2)cc2cn(C)nc12
Output: 1000 to 10000 nM

Input: Give GI50 for Cc1cn2cc(-c3cc(F)c4c(=O)n([C@H]5CCNC[C@H]5F)cnc4c3)cc(F)c2n1
Output: 100 to 1000 nM

* * *

# System: MYB mRNA
# Assay Text: RT-qPCR splicing assay, MYB canonical junction (CJ) and alternative junction (AJ) mRNA
# Format: cell-based, human
# Conditions: Homo sapiens; Table 5 panel; canonical junction qPCR; compound concentration having 50% response in CJ decrease; read-out: MYB IC50 (decrease in CJ mRNA levels)
pIC50: −log10 of the molar value. Counter-ions that a name gives are not always drawn.
Can you tell me pIC50 for the items I'm about to list?

Input: Give pIC50 for COC(=O)Cc1cc(-c2ccc3c(=O)n(C4CCNCC4)ccc3c2)nn2cc(C)nc12 [Compound 527]
Output: 6.00 to 7.00

Input: Give pIC50 for Cc1cn2nc(-c3cc4ccn(C5CCNCC5)c(=O)c4cn3)cc(C)c2n1 [Compound 1198]
Output: 6.00 to 7.00

Input: Give pIC50 for Cc1cn2nc(-c3ccc4c(=O)n(C5CCNC6(CC6)C5)ncc4c3)cc(C)c2n1 (stereo not shown) [Compound 274]
Output: > 7.00

Input: Give pIC50 for Cc1cn2nc(-c3ccc4c(=O)n(C5CCNCC5)ccc4c3)cc(Oc3cccc(F)c3)c2n1 [Compound 545, hydrochloride]
Output: > 7.00

Input: Give pIC50 for Cc1cn2nc(-c3cc(F)c4c(=O)n(C5CCNCC5)ncc4c3)cc(Oc3ccccc3)c2n1 [Compound 548]
Output: > 7.00

Input: Give pIC50 for Cc1cn2nc(-c3cc(O)c4c(=O)n(C5CCNC5)ccc4c3)cc(C)c2n1 (stereo not shown) [Compound 432]
Output: > 7.00

Input: Give pIC50 for Cc1nc2c(F)cc(-c3ccc4c(=O)n(C5CCNCC5)cnc4c3)cc2o1 [Compound 245]
Output: 6.00 to 7.00

Input: Give pIC50 for Cc1cn2nc(-c3ccc4c(=O)n(C5CCNCC5)ccc4c3)cc(C(=O)N(C)C)c2n1 [Compound 524]
Output: < 5.00

Input: Give pIC50 for CC(=O)c1cc(-c2cc(F)c3c(=O)n(C4CCNCC4)ccc3c2)cn2cc(C)nc12 [Compound 393, 2,2,2-trifluoroacetate]
Output: 6.00 to 7.00

Input: Give pIC50 for CN1CCC(n2cnc3cc(-c4ccc5nn(C)cc5c4)ccc3c2=O)CC1 [Compound 208]
Output: 5.00 to 6.00

Input: Give pIC50 for Cc1cn2nc(-c3ccc4c(=O)n(C5CCNCC5)ccc4c3)cc(C(=O)O)c2n1 [Compound 516]
Output: 5.00 to 6.00

Input: Give pIC50 for Cc1cc(-c2ccc3c(=O)n(C4CCNCC4)cnc3c2F)cc2cn(C)nc12 [Compound 234]
Output: 5.00 to 6.00

Input: Give pIC50 for Cc1cn2cc(-c3cc(F)c4c(=O)n([C@H]5CC[C@H](N(C)C)CC5)ccc4c3)cc(F)c2n1 [Compound 654]
Output: > 7.00

Input: Give pIC50 for Cc1cn2cc(-c3cc(F)c4c(=O)n([C@H]5CCN[C@H](C)C5)cnc4c3)cc(F)c2n1 [Compound 346]
Output: > 7.00

Input: Give pIC50 for Cc1nc2c(F)cc(-c3cc(F)c4c(=O)n(C5CCNC6(CC6)C5)ccc4c3)cc2o1 (stereo not shown) [Compound 417]
Output: > 7.00

Input: Give pIC50 for Cc1cn2cc(-c3ccc4c(=O)n(C5CCNC(C)C5)cnc4c3)cc(F)c2n1 (stereo not shown) [Compound 323]
Output: 6.00 to 7.00

From: patent US20250332173A1
